The reported numbers originate from ChEMBL document CHEMBL1136837.

system: Vaccinia virus; assay: Antiviral activity against Vaccinia virus; assay type: functional, organism-based, Orthopoxvirus vaccinia; settings: Orthopoxvirus vaccinia
Listed compounds paired with reported pIC50
Please report pIC50 as the negative decimal logarithm of the molar concentration, giving only the number.

Sample answers from the record:
C=CCNc1nc(N)nc2c1ncn2CCOCP(=O)(O)O | 4.60
C=CCc1c(N)nc(N)n(CCOCP(=O)(O)O)c1=O | 8.92
CCCCCCCCCCCCCCCCOCCCOP1(=O)CO[C@@H](CN2CCC(N)=NC2=O)CO1 (some centres undefined) | 5.25
Nc1cc(OC[C@H](CO)OCP(=O)(O)O)nc(N)n1 | 11.19
Nc1nc(N)c(C2CC2)c(OCCOCP(=O)(O)O)n1 | 8.92
N#CCc1c(N)nc(N)n(CCOCP(=O)(O)O)c1=O | 8.92
CC(NP1(=O)CO[C@@H](Cn2ccc(N)nc2=O)CO1)C(=O)OCCc1ccccc1 (some centres undefined) | 5.15
Nc1nc(N)c(-c2ccccc2)c(OCCOCP(=O)(O)O)n1 | 8.92

Give its pIC50 value. Item: N#CCc1c(N)nc(N)nc1OCCOCP(=O)(O)O
8.92

Ok, now Cc1c(N)nc(N)nc1OCCOCP(=O)(O)O
9.07

Ok, now Nc1nc(N)n(CCOCP(=O)(O)O)c(=O)c1Cc1ccccc1
8.92

Ok, now CCCCOC(=O)C[C@H](C)NP(=O)(COCCn1cnc2c(N)ncnc21)N[C@@H](C)C(=O)OCCCC (some centres undefined)
5.36

Ok, now O=c1[nH]c(=O)n([C@H]2C[C@H](O)[C@@H](CO)O2)cc1I
5.22

Ok, now Cc1cn([C@H]2C=C[C@@H](CO)O2)c(=O)[nH]c1=O
3.35

Ok, now Nc1nc(O)cc(OCCOCP(=O)(O)O)n1
9.74

Ok, now Nc1nc2c(ncn2COC(CO)CO)c(=O)[nH]1
3.41

Ok, now Nc1ccn(C[C@H]2COP(=O)(O)CO2)c(=O)n1
4.68

###

test system: Echovirus; experiment: Antiviral activity against Echovirus; assay type: functional, organism-based
QUANTITY_MEASURED: pIC50
Please report pIC50 as the negative decimal logarithm of the molar concentration, giving only the number.

Form field - read-out: pIC50; system: Echovirus; submitted item: CCO/N=C/c1ccc(OCCC2CCN(c3ccc(Cl)nn3)CC2)cc1
7.17

###

test system: Human betaherpesvirus 6; assay: Antiviral activity against Human herpesvirus 6A; format: functional, organism-based
QUANTITY_MEASURED: pIC50
Please report pIC50 as the negative decimal logarithm of the molar concentration, giving only the number.

CC(C)Nc1nc2cc(Cl)c(Cl)cc2n1[C@H]1O[C@@H](CO)[C@H](O)[C@@H]1O [MARIBAVIR] | 3.90

Give its pIC50 value. Item: Nc1nc2c(ncn2/C=C2\CC2(CO)CO)c(=O)[nH]1
3.94

Ok, now OC[C@H]1O[C@@H](n2c(Br)nc3cc(Cl)c(Cl)cc32)[C@H](O)[C@@H]1O
3.90

Ok, now O[C@@H]1[C@H](O)[C@H](O)CO[C@H]1n1c(Br)nc2cc(Cl)c(Cl)cc21
3.90

###

test system: H5N1 subtype; assay: Antiviral activity against influenza H5N1 virus; format: functional, organism-based; settings: Influenza A virus
Listed compounds paired with reported IC50
Kindly answer with a numeric value in µM, unit omitted.

CC(=O)N[C@H]1[C@H]([C@H](O)[C@H](O)CO)OC(C(=O)O)=C[C@@H]1NC(=N)N [ZANAMIVIR] | 0.22

Form field - read-out: IC50; system: H5N1 subtype; submitted item: CCOC(=O)C1=C[C@@H](OC(CC)CC)[C@H](NC(C)=O)[C@@H](N)C1 [OSELTAMIVIR]
34

###

tested on: Hepatitis C virus; assay: Antiviral activity against Hepatitis C virus; format: functional, organism-based, Hepacivirus hominis; conditions: Hepatitis C virus
Starred links: 1 amine or outer side, 2 acyl side, 3 side chain; linkers in the order of their positions; H or OH if unused. Non-standard residues stand in square brackets, D forms with d. Residues, ends and D or L forms follow the SMILES beside them. *: point of attachment. NH(1R-phenylethyl) = C[C@@H](N*)c1ccccc1; Hyp = O=C(O)[C@@H]1C[C@@H](O)CN1; X8 = CCCN(N*)C(=O)NN(C)c1ccccc1; azaNva = CCCN(N[*:1])C(=O)[*:2]; Bn = c1ccc(C*)cc1
Listed compounds paired with reported pIC50
Please report pIC50 as the negative decimal logarithm of the molar concentration, giving only the number.

CCCN(NC(=O)[C@@H]1C[C@@H](OCc2ccccc2)CN1C(=O)[C@@H](NC(=O)[C@@H](NC(=O)[C@@H](CCC(=O)O)NC(=O)[C@H](CC(=O)O)NC(C)=O)[C@@H](C)CC)C(C)C)C(=O)NN(C)c1ccccc1 (Ac-D[dE]IV[Hyp](Bn)-X8) | 6.32

# input for lookup
Form field - read-out: pIC50; system: Hepatitis C virus; submitted item: CCCN(NC(=O)[C@@H]1C[C@@H](OCc2ccccc2)CN1C(=O)[C@@H](NC(=O)[C@@H](NC(=O)[C@@H](CCC(=O)O)NC(=O)[C@H](CC(=O)O)NC(C)=O)[C@@H](C)CC)C(C)C)C(=O)N[C@H](C)c1ccccc1 (Ac-D[dE]IV[Hyp](Bn)[azaNva]-{NH(1R-phenylethyl)})
5.37

###

tested on: Hepatitis C virus; assay: Antiviral activity against Hepatitis C virus; format: functional, organism-based, Hepacivirus hominis; conditions: Hepatitis C virus
Starred links: 1 amine or outer side, 2 acyl side, 3 side chain; linkers in the order of their positions; H or OH if unused. Non-standard residues stand in square brackets, D forms with d. Residues, ends and D or L forms follow the SMILES beside them. *: point of attachment. Dip = N[C@H](C(=O)O)C(c1ccccc1)c1ccccc1; Hyp = O=C(O)[C@@H]1C[C@@H](O)CN1; azaNva = CCCN(N[*:1])C(=O)[*:2]; Cha = N[C@@H](CC1CCCCC1)C(=O)O; X2 = C[C@H](N*)c1cccc2ccccc12; X4 = C1CCC(CCN*)CC1; Bn = c1ccc(C*)cc1
Listed molecules paired with reported pIC50
Please report pIC50 as the negative decimal logarithm of the molar concentration, giving only the number.

Sample answers from the record:
CC(=O)N[C@@H](CC(=O)O)C(=O)N[C@@H](CCC(=O)O)C(=O)N[C@H](C(=O)N[C@@H](CCC(=O)O)C(=O)N[C@@H](CC1CCCCC1)C(=O)N[C@@H](CS)C(=O)NCCC1CCCCC1)C(c1ccccc1)c1ccccc1 (Ac-DE[Dip]E[Cha]C-X4) | 5.81
Cc1ccc(C(=O)CC(=O)C(=O)O)cc1 | 4.30
CC(=O)N[C@H](C(=O)N[C@H](C(=O)N1C[C@H](OCc2cccc3ccccc23)C[C@H]1C(=O)N[C@@]1(C(=O)O)C[C@@H]1CCc1ccccc1)C(C)C)C1CCCCC1 | 4.05
O=C(O)[C@H](Cc1ccccc1)N(Cc1ccc(-c2cc3ccccc3o2)s1)C(=O)c1ccc(Cl)cc1Cl | 5.07
Cc1cccc(CN(C(=O)c2ccc(Cl)cc2Cl)[C@@H](Cc2ccccc2)C(=O)O)c1 | 5.74

Form field - read-out: pIC50; system: Hepatitis C virus; submitted item: CCCN(NC(=O)[C@@H]1C[C@@H](OCc2ccccc2)CN1C(=O)[C@@H](NC(=O)[C@@H](NC(=O)[C@@H](CCC(=O)O)NC(=O)[C@H](CC(=O)O)NC(C)=O)[C@@H](C)CC)C(C)C)C(=O)N[C@@H](C)c1cccc2ccccc12 (Ac-D[dE]IV[Hyp](Bn)[azaNva]-X2)
6.31

Ok, now N#Cc1ccccc1COc1cccc(C(=O)/C=C(\O)C(=O)O)c1
6.64

###

test system: Human alphaherpesvirus 2; assay: Antiviral activity against Herpes simplex virus 2; type: functional, organism-based; details: Human alphaherpesvirus 2
pIC50: −log10 of the molar value.
pIC50 below 9 gives Not met; pIC50 at or above it gives Met.

# count of solved cases: 3
CC(=O)OC[C@H]1S[C@@H](n2nc(C)c(=S)[nH]c2=O)C[C@@H]1OC(C)=O | Not met
O=c1[nH]c(=O)n([C@H]2C[C@H](O)[C@@H](CO)O2)cc1/C=C/Br | Not met
O=c1[nH]c(=O)n([C@H]2C[C@H](O)[C@]3(CO)C[C@H]23)cc1Br | Not met

Record Nc1nc2c(ncn2/C=C2/CC2(CO)CO)c(=O)[nH]1 ; criterion: pIC50 no lower than 9. Met?
Not met

Ok, now Cc1c(N)nc(N)n(CCOCP(=O)(O)O)c1=O
Met

Ok, now Nc1ccn(/C=C2/CC2(CO)CO)c(=O)n1
Not met

Ok, now O=c1[nH]c(=O)n([C@H]2C[C@H](O)[C@]3(CO)C[C@H]23)cc1/C=C/Br
Not met

Ok, now Cc1nn([C@H]2C[C@H](O)[C@@H](CO)S2)c(=O)nc1O
Not met

Ok, now Nc1cc(SCCOCP(=O)(O)O)nc(N)n1
Met

Ok, now Nc1nc(NC2CC2)cc(=O)n1CCOCP(=O)(O)O
Met
